Every entry's value here was drawn from PubChem BioAssay (Tox21).

- assayNotes: qHTS RealTime-Glo MT Cell Viability Assay in HepG2 cells - 32 hour (AID 1224877); also: nearly all actives have a fitted effect of over 55% in size
- conditions: RealTime-Glo luminescence; series mostly up to 76.8 µM
Inconclusive results are not listed. Activity calls are given as the source filed them. Calls follow the shape of the dose curve; as a rule, active = well fitted cell-killing curve with a large enough effect in the repeat runs; inconclusive = weak or mixed curves; inactive = flat fitted curve, though single readings scatter.
resultType: outcome

INSERT INTO results (compound, result) VALUES
  ('CO[C@H]1C=CO[C@@]2(C)Oc3c(C)c(O)c4c(O)c(c(/C=N/N5CCN(C)CC5)c(O)c4c3C2=O)NC(=O)/C(C)=C\C=C[C@H](C)[C@H](O)[C@@H](C)[C@@H](O)[C@@H](C)[C@H](OC(C)=O)[C@@H]1C', 'inactive'),
  ('OC[C@@H](O)[C@@H](O)[C@H](O)[C@H](O)CO', 'inactive'),
  ('C=CC(=O)NC(C)(C)CS(=O)(=O)O', 'inactive'),
  ('NC(N)=NC(N)=NCCc1ccccc1', 'inactive'),
  ('NC(=O)OCC(COC(N)=O)c1ccccc1', 'inactive'),
  ('CCCCC/C(C=O)=C\c1ccccc1', 'inactive'),
  ('Cc1c(N(C)C)c(=O)n(-c2ccccc2)n1C', 'inactive'),
  ('CN(C)C=O', 'inactive'),
  ('NC(=O)N1c2ccccc2C=Cc2ccccc21', 'inactive'),
  ('COC(=O)C1CCC(C(=O)OC)CC1 (stereo not drawn)', 'inactive'),
  ('O=C(OCc1ccccc1)c1ccccc1', 'inactive'),
  ('CC(=O)OC/C=C(C)/C=C/C=C(C)/C=C/C1=C(C)CCCC1(C)C', 'inactive'),
  ('C[C@]12C[C@H](O)[C@H]3[C@@H](CCC4=CC(=O)CC[C@@]43C)[C@@H]1CC[C@@H]2C(=O)CO', 'inactive');

---

- testedOn: Nuclear receptor ROR-gamma (Homo sapiens) (UniProt P51449)
- assayNotes: qHTS assay to identify small molecule antagonists of the retinoid-related orphan receptor gamma (ROR-gamma) signaling pathway (AID 1159521; also: nearly all actives have a fitted effect of over 50% in size)
- conditions: Tet-on RORgamma CHO cells, RORE-luciferase, 16 h; series mostly up to 92.4 µM
Results filed as inconclusive are left out. The source made the active and inactive calls. Calls come from the whole dose curve; as a rule, active = well fitted inhibition curve with a large enough effect in the repeat runs; inconclusive = weak or mixed curves, or effect the other way; inactive = no such curve, though single readings can be large or run the other way.
Outcome codes: active, inactive

INSERT INTO measurements (molecule, classlabel) VALUES
  ('CCOCCO', 'inactive'),
  ('Cc1cccc2ccccc12', 'inactive'),
  ('N[C@@H](Cc1c[nH]c2ccc(O)cc12)C(=O)O', 'inactive'),
  ('C=CC(=O)NC(C)(C)CS(=O)(=O)O', 'inactive'),
  ('CCCCNC(=O)NS(=O)(=O)c1ccc(N)cc1', 'inactive'),
  ('CCCCCCCCCCCCCC(=O)OC(C)C', 'inactive'),
  ('CC(O)COc1ccccc1 (centres undefined)', 'inactive'),
  ('O=C(O)Cc1cccc2ccccc12', 'inactive'),
  ('NC(=O)N1c2ccccc2C=Cc2ccccc21', 'inactive'),
  ('NC(=O)OCC(COC(N)=O)c1ccccc1', 'inactive'),
  ('COCCOCCOC', 'inactive'),
  ('O=c1c(-c2ccc(O)cc2)coc2cc(O)cc(O)c12', 'inactive'),
  ('CCN(CC)CCOC(=O)c1ccc(N)cc1', 'inactive'),
  ('CN(C)C=O', 'inactive'),
  ('O=C(O)CN(CC(=O)O)CC(=O)O', 'inactive'),
  ('CC(C)CC(C)CC(O)CC(C)C (centres undefined)', 'inactive'),
  ('CC(C)=CCC/C(C)=C/CO', 'inactive'),
  ('CCc1cc(C(N)=S)ccn1', 'inactive'),
  ('CC(=O)c1ccc(S(=O)(=O)NC(=O)NC2CCCCC2)cc1', 'inactive'),
  ('NC(=O)N/N=C/c1ccc([N+](=O)[O-])o1', 'inactive'),
  ('CC(=O)Oc1ccccc1C(=O)O', 'inactive'),
  ('Cn1cnc2c1c(=O)[nH]c(=O)n2C', 'inactive'),
  ('Oc1cccc(O)c1', 'inactive'),
  ('O=c1cc[nH]c(=O)[nH]1', 'inactive'),
  ('C1CNCCN1', 'inactive'),
  ('COc1cc(O)c(C(=O)c2ccccc2)cc1S(=O)(=O)O', 'inactive'),
  ('OC[C@@H](O)[C@@H](O)[C@H](O)[C@H](O)CO', 'inactive'),
  ('N[C@@H](Cc1c[nH]c2ccccc12)C(=O)O', 'inactive'),
  ('C=CCOC(=O)CC(C)C', 'inactive'),
  ('Nc1ccc(N=Nc2ccccc2)c(N)n1', 'inactive'),
  ('CCCCC/C(C=O)=C\c1ccccc1', 'inactive'),
  ('Cc1c(N(C)CS(=O)(=O)O)c(=O)n(-c2ccccc2)n1C', 'inactive'),
  ('C[C@]12C=CC(=O)C=C1CC[C@@H]1[C@@H]2C(=O)C[C@@]2(C)[C@H]1CC[C@]2(O)C(=O)CO', 'inactive'),
  ('CC(=O)OC/C=C(C)/C=C/C=C(C)/C=C/C1=C(C)CCCC1(C)C', 'inactive'),
  ('CC(C)Cc1ccc(C(C)C(=O)O)cc1 (centres undefined)', 'inactive'),
  ('CCOC(=O)C(C)(C)Oc1ccc(Cl)cc1', 'inactive'),
  ('O=C(O)CCCCC1CCSS1 (centres undefined)', 'inactive'),
  ('COCC(C)N (centres undefined)', 'inactive'),
  ('CC1=C(/C=C/C(C)=C/C=C/C(C)=C/C(=O)O)C(C)(C)CCC1', 'inactive'),
  ('Cc1ccc(O)c(-n2nc3ccccc3n2)c1', 'inactive'),
  ('NC(N)=NC(N)=NCCc1ccccc1', 'active'),
  ('CCN1CCCC1=O', 'inactive'),
  ('C/C=C/c1ccc(O)c(OC)c1', 'inactive'),
  ('CN/C(=C\[N+](=O)[O-])NCCSCc1ccc(CN(C)C)o1', 'inactive');

---

- testedOn: Cytochrome P450 2D6 (Homo sapiens) (UniProt P10635)
- Sequence (P10635 whole entry, looked up): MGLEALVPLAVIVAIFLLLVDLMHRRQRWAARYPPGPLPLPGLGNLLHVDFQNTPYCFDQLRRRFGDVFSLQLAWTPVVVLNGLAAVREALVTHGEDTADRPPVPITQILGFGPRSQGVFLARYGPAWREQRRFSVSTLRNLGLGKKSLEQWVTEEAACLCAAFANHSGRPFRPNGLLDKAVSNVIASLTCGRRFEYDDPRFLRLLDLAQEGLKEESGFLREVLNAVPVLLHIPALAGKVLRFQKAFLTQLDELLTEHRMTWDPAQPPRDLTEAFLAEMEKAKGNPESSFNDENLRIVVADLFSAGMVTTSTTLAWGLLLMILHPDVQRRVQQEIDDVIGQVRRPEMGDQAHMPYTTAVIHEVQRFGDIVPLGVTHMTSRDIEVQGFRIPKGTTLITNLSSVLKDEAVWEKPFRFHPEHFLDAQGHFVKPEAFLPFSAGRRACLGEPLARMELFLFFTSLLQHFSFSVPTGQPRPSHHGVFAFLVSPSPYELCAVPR
- assayNotes: Cytochrome P450 Family 2 Subfamily D Member 6 (CYP2D6) small molecule antagonists: luciferase reporter qHTS assay (AID 1671196); also: nearly all actives have a fitted effect of over 50% in size
- conditions: P450-Glo CYP2D6 enzyme assay, luciferin luminescence, 1 h; series mostly up to 115 µM
Records with an inconclusive call do not appear. Active and inactive are the calls of the source. Calls follow the shape of the dose curve; as a rule, active = well fitted inhibition curve with a large enough effect in the repeat runs; inconclusive = weak or mixed curves; inactive = no such curve, though single readings can be large or run the other way.
Outcome codes: active, inactive

INSERT INTO measurements (compound, classlabel) VALUES
  ('CN/C(=C\[N+](=O)[O-])NCCSCc1ccc(CN(C)C)o1', 'inactive'),
  ('Cc1c(N(C)C)c(=O)n(-c2ccccc2)n1C', 'inactive'),
  ('COc1cc(O)c(C(=O)c2ccccc2)cc1S(=O)(=O)O', 'inactive'),
  ('CCCCCCCCCCCCCCCCCC(=O)OCC(O)CO (stereo not given)', 'inactive'),
  ('O=C1CCCCCN1', 'inactive'),
  ('C#C[C@]1(O)CC[C@H]2[C@@H]3CCc4cc(O)ccc4[C@H]3CC[C@@]21C', 'inactive'),
  ('C#C[C@]1(O)CC[C@H]2[C@@H]3CCC4=CC(=O)CC[C@@H]4[C@H]3CC[C@@]21CC', 'inactive'),
  ('N[C@@H](Cc1c[nH]c2ccc(O)cc12)C(=O)O', 'active'),
  ('CC(=O)CCC(C)C', 'inactive'),
  ('Cc1cccc(Nc2cc(Cl)nc(SCC(=O)O)n2)c1C', 'inactive'),
  ('COC(=O)C1CCC(C(=O)OC)CC1 (stereo not given)', 'inactive'),
  ('CO[C@H]1C=CO[C@@]2(C)Oc3c(C)c(O)c4c(O)c(c(/C=N/N5CCN(C)CC5)c(O)c4c3C2=O)NC(=O)/C(C)=C\C=C[C@H](C)[C@H](O)[C@@H](C)[C@@H](O)[C@@H](C)[C@H](OC(C)=O)[C@@H]1C', 'inactive'),
  ('Oc1cccc(O)c1', 'inactive'),
  ('COC(=O)c1ccc(C=O)cc1', 'inactive'),
  ('C=CCOC(=O)CC(C)C', 'inactive'),
  ('NC(=O)c1ccc([N+](=O)[O-])cc1Cl', 'inactive'),
  ('NC(=O)OCC(COC(N)=O)c1ccccc1', 'inactive'),
  ('CC(=O)Oc1ccccc1C(=O)O', 'inactive'),
  ('CCCCCCCCOc1ccc(C(=O)c2ccccc2)c(O)c1', 'inactive'),
  ('COc1ccc(C(=O)c2ccccc2)c(O)c1', 'active'),
  ('Cc1cccc2ccccc12', 'inactive'),
  ('CCCCOCCOCCSC#N', 'inactive'),
  ('CCCCOCCOCCOC(C)=O', 'inactive'),
  ('C/C=C/c1ccc(O)c(OC)c1', 'inactive'),
  ('CC(O)COc1ccccc1 (stereo not given)', 'inactive');

---

- assayNotes: qHTS assay to identify small molecule antagonists of the androgen receptor (AR) signaling pathway - cell viability counter screen (AID 743033; also: nearly all actives have a fitted effect of over 45% in size)
- conditions: AR-bla HEK293 viability, CellTiter-Glo luminescence, 16 h; series mostly up to 58.5 µM
Inconclusive results are not listed. The source made the active and inactive calls. Calls come from the whole dose curve; as a rule, active = well fitted cell-killing curve with a large enough effect in the repeat runs; inconclusive = weak or mixed curves; inactive = no such curve, though single readings can be large or run the other way.
resultType: outcome

INSERT INTO measurements (molecule, resulttype, result) VALUES
  ('Cc1ccc(O)c(-n2nc3ccccc3n2)c1', 'outcome', 'inactive'),
  ('NC(N)=NC(N)=NCCc1ccccc1', 'outcome', 'inactive'),
  ('CN/C(=C\[N+](=O)[O-])NCCSCc1ccc(CN(C)C)o1', 'outcome', 'inactive'),
  ('CC(C)Cc1ccc(C(C)C(=O)O)cc1 (configuration not stated)', 'outcome', 'inactive'),
  ('O=C(OCc1ccccc1)c1ccccc1', 'outcome', 'inactive'),
  ('O=c1c(-c2ccc(O)cc2)coc2cc(O)cc(O)c12', 'outcome', 'inactive'),
  ('CCCCCCCC(=O)OCC(O)CO (configuration not stated)', 'outcome', 'inactive');
